Numbers sourced from PubChem BioAssay (NCATS).

target: DNA dC->dU-editing enzyme APOBEC-3G (Homo sapiens) (UniProt Q9HC16); assay: qHTS for inhibitors of Vif-A3G interactions: Validation (AID 588379); details: Vif-A3G protein interaction assay; series mostly up to 46.1 µM
Sequence (Q9HC16 whole entry, looked up): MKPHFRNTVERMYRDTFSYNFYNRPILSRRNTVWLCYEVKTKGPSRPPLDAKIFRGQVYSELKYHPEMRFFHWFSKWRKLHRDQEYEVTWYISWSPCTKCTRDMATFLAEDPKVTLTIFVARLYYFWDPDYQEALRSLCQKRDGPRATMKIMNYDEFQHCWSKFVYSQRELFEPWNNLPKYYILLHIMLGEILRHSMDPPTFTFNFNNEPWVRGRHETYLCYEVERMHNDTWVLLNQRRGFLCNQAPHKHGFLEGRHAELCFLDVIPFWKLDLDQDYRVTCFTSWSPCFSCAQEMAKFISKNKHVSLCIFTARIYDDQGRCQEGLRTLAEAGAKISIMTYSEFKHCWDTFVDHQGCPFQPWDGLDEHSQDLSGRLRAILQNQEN
The source made the active and inactive calls. Calls come from the whole dose curve; as a rule, active = well fitted inhibition curve with a large enough effect; inconclusive = small, poorly fitted or top-dose-only effect; inactive = flat fitted curve, though single readings scatter. Non-standard residues stand in square brackets, D forms with d. Residues, ends and D or L forms follow the SMILES beside them.

{"COMPOUND": "O=C(Nc1ccccc1)[C@@]12C[C@@H]1/C(=N/O)c1ccccc1O2", "outcome": "inactive"}
{"COMPOUND": "CCCCCCCCCCCCC/C=C\\[C@@H](O)[C@H](CO)NC(C)=O", "outcome": "inactive"}
{"COMPOUND": "N[C@@H](C(=O)O)c1ccc(C(=O)O)cc1", "outcome": "inactive"}
{"COMPOUND": "COCCNC(=O)COc1ccc(OCCNC[C@@H](O)COc2ccccc2)cc1", "outcome": "inactive"}
{"COMPOUND": "C[C@H](N)C(=O)O", "outcome": "inactive"}
{"COMPOUND": "N[C@@]1(C(=O)O)CN[C@H](C(=O)O)C1", "outcome": "inactive"}
{"COMPOUND": "O=C(c1ccccc1)[C@@H]1O[C@H]1c1ccc(-c2ccccc2)cc1", "outcome": "inactive"}
{"COMPOUND": "N=C(N)S/C=C\\C(=O)O", "outcome": "inactive"}
{"COMPOUND": "O=c1[nH]c2cc(Cl)ccc2c(O)c1-c1cccc(Oc2ccccc2)c1", "outcome": "inactive"}
{"COMPOUND": "CCCCCCCC(=O)O[C@H](CC(=O)O)C[N+](C)(C)C", "outcome": "inactive"}
{"COMPOUND": "CC[C@]1(O)C[C@@H]2CN(CCc3c([nH]c4ccccc34)[C@](C(=O)OC)(c3cc4c(cc3OC)N(C)[C@H]3[C@](O)(C(=O)OC)[C@@H](C(=O)OC)[C@@]5(CC)C=CCN6CC[C@@]43[C@@H]65)C2)C1", "outcome": "inactive"}
{"COMPOUND": "CCCCCCc1c(C[C@H](N)C(=O)O)o[nH]c1=O", "outcome": "inactive"}
{"COMPOUND": "O=C1C(=O)N(Cc2ccc(Cl)c(Cl)c2)c2ccccc21", "outcome": "inactive"}
{"COMPOUND": "N[C@H](C(=O)O)c1ccc(C(=O)O)c(O)c1", "outcome": "inactive"}
{"COMPOUND": "CCNC(=O)[C@H]1O[C@H](n2cnc3c(N)nc(NCCc4ccc(CCC(=O)O)cc4)nc32)[C@@H](O)[C@@H]1O", "outcome": "inactive"}
{"COMPOUND": "Cc1ccc(C(=O)Cn2c3c(sc2=N)CCCC3)cc1", "outcome": "inactive"}
{"COMPOUND": "CC(C)NC[C@@H](O)COc1ccc(COCCOC(C)C)cc1", "outcome": "inactive"}
{"COMPOUND": "CN1CCN(C2=Cc3ccccc3Oc3ccc(Cl)cc32)CC1", "outcome": "inactive"}
{"COMPOUND": "CC[N+](CC)(CC)CCOc1ccc(/C=C\\c2ccccc2)cc1", "outcome": "inactive"}
{"COMPOUND": "CSCC[C@H](C=O)NC(=O)[C@H](CC(C)C)NC(=O)[C@H](CC(C)C)NC(C)=O (Ac-Leu-Leu-[dM]-aldehyde)", "outcome": "inactive"}
{"COMPOUND": "CS(=O)(=O)Nc1c(O)ccc2c1CCC[C@H]2C1=NCCN1", "outcome": "inactive"}
{"COMPOUND": "NC(=NC1C2CC3CC(C2)CC1C3)Nc1ccc(I)cc1 (stereo not drawn)", "outcome": "inactive"}
{"COMPOUND": "CCCCCN=c1ccn(Cc2ccccc2)c2ccccc12", "outcome": "inactive"}
{"COMPOUND": "O=C(O)CC/C=C\\C[C@@H]1CO[C@H](c2ccccc2Cl)O[C@@H]1c1ccccc1O", "outcome": "inactive"}
{"COMPOUND": "CCCCN1CCC(CCC(=O)c2cc(Cl)c(N)cc2OC)CC1", "outcome": "inactive"}
{"COMPOUND": "Nc1ncnc2c1ncn2[C@@H]1O[C@H](COP(=O)(O)OP(=O)(O)O)[C@@H](O)[C@H]1O", "outcome": "inactive"}
{"COMPOUND": "COc1cc([C@@H]2c3cc4c(cc3[C@@H](O[C@@H]3O[C@H]5CO[C@@H](C)O[C@@H]5[C@@H](O)[C@H]3O)[C@@H]3COC(=O)[C@@H]23)OCO4)cc(OC)c1O", "outcome": "inactive"}
{"COMPOUND": "C[C@@]1(C(=O)O)NCCc2cc(O)c(O)cc21", "outcome": "inactive"}
